Test: Apparent intrinsic clearance in human liver microsomes at 1 uM
Type: ADME
Details: read-out: CLH(app)
Non-standard residues stand in square brackets, D forms with d. Residues, ends and D or L forms follow the SMILES beside them. *: point of attachment. Dolaproine = CO[C@@H]([C@@H]1CCCN1)[C@@H](C)C(=O)O; Dil = CC[C@H](C)[C@H](NC)[C@@H](CC(=O)O)OC; Doe = c1ccc(C[C@H](N*)c2nccs2)cc1; X1 = C[C@@H](N*)[C@@H](O)c1ccccc1; NMeV = CN[C@H](C(=O)O)C(C)C; Aib = CC(C)(N)C(=O)O

compound | microsomal CLint at 1 µM (µL/min/mg)
CC[C@H](C)[C@@H]([C@@H](CC(=O)N1CCC[C@H]1[C@H](OC)[C@@H](C)C(=O)N[C@@H](Cc1ccccc1)c1nccs1)OC)N(C)C(=O)[C@@H](NC(=O)[C@@H](NC)C(C)C)C(C)C (H-[NMeV]V[Dil][Dolaproine]-Doe) | 48
CC[C@H](C)[C@@H]([C@@H](CC(=O)N1CCC[C@H]1[C@H](OC)[C@@H](C)C(=O)N[C@H](C)[C@@H](O)c1ccccc1)OC)N(C)C(=O)[C@@H](NC(=O)[C@@H](NC)C(C)C)C(C)C (H-[NMeV]V[Dil][Dolaproine]-X1) | 24
CC[C@H](C)[C@@H]([C@@H](CC(=O)N1CCC[C@H]1[C@H](OC)[C@@H](C)C(=O)N[C@@H](Cc1ccccc1)c1nccs1)OC)N(C)C(=O)[C@@H](NC(=O)C(C)(C)N)C(C)C (H-[Aib]V[Dil][Dolaproine]-Doe) | 84

###

Experiment: Clearance in Han Wistar rat at 20 ug/kg, iv by LC-MS/MS analysis
Format: ADME, organism-based
Conditions: in vivo, 0.02 mg/kg
Non-standard residues stand in square brackets, D forms with d. Residues, ends and D or L forms follow the SMILES beside them. *: point of attachment. Dolaproine = CO[C@@H]([C@@H]1CCCN1)[C@@H](C)C(=O)O; Dil = CC[C@H](C)[C@H](NC)[C@@H](CC(=O)O)OC; Doe = c1ccc(C[C@H](N*)c2nccs2)cc1; Aib = CC(C)(N)C(=O)O
parameter: clearance (mL/min/kg)

compound | parameter | reading
CC[C@H](C)[C@@H]([C@@H](CC(=O)N1CCC[C@H]1[C@H](OC)[C@@H](C)C(=O)N[C@@H](Cc1ccccc1)c1nccs1)OC)N(C)C(=O)[C@@H](NC(=O)C(C)(C)N)C(C)C (H-[Aib]V[Dil][Dolaproine]-Doe) | clearance | 70

###

Assay: Fraction unbound in monkey plasma at 0.1 uM
Format: ADME, cell-free, Macaca mulatta
Settings: rhesus monkey
Non-standard residues stand in square brackets, D forms with d. Residues, ends and D or L forms follow the SMILES beside them. *: point of attachment. Dolaproine = CO[C@@H]([C@@H]1CCCN1)[C@@H](C)C(=O)O; Dil = CC[C@H](C)[C@H](NC)[C@@H](CC(=O)O)OC; Doe = c1ccc(C[C@H](N*)c2nccs2)cc1; Aib = CC(C)(N)C(=O)O

molecule | fraction unbound at 0.1 µM
CC[C@H](C)[C@@H]([C@@H](CC(=O)N1CCC[C@H]1[C@H](OC)[C@@H](C)C(=O)N[C@@H](Cc1ccccc1)c1nccs1)OC)N(C)C(=O)[C@@H](NC(=O)C(C)(C)N)C(C)C (H-[Aib]V[Dil][Dolaproine]-Doe) | 0.24
